experimental target: Human Cbl-b (residues 40-426) (Homo sapiens (Human), UniProt Q13191)
Sequence (Q13191 40-426): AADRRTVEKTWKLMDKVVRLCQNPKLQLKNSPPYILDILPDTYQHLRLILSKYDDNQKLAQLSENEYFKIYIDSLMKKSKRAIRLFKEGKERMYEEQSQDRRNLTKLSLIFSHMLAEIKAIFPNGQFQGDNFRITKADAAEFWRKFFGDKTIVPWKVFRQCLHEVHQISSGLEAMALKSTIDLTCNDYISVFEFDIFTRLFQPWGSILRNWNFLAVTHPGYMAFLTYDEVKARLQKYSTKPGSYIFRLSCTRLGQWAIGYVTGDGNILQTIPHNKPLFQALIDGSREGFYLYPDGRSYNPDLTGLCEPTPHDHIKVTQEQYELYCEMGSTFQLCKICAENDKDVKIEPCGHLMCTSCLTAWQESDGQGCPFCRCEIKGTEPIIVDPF
run description: Cbl-b SPR assay
Type: binding
test conditions: C-cbl SPR Kd vs Cbl-b SPR Kd
measure: Fold of selectivity (×)

[[record]]
compound = "CC(C)CNCc1cc2c(c(C(F)(F)F)c1)CN(c1cccc([C@H](c3nncn3C)C3COC3)c1)C2=O (single isomer, unassigned)"
measure = "Fold of selectivity"
test_result = 3.3


(P) Cn1cnnc1[C@@H](c1cccc(N2Cc3c(cc(CNC4(C)CCC4)cc3C(F)F)C2=O)c1)C1CC(F)C1 (single isomer, unassigned) [Compound 459]
(Q) CO[C@H]1C[C@](c2cccc(N3Cc4c(cc(CNC5CC6CC6C5)cc4C(F)(F)F)C3=O)c2)(c2nncn2C)C1 (stereo partly drawn)
Enquiry: From the recorded data, which exceeds the other in Fold of selectivity: P or Q ? Refer to your chosen item by its label in the answer.
Return: Q

Data provenance: patent US12187709B2
